# TARGET_OR_TEST_SYSTEM: UniProtKB P45983
# METHOD: In Vitro JNK1 Assay (TR-FRET, phosphorylation of GST-c-Jun)
# Assay type: biochemical
# TEST_CONTEXT: 0.2 nM active JNK1 kinase, 26.7 nM GST-c-Jun, 2 μM ATP, 30 min at room temperature
MEASURED_PARAMETER: IC50 (µM)

>  <COMPOUND>
O=C(NCc1cn(-c2ccccc2)c2cc(Cl)ccc2c1=O)NC1CCN(C(=O)OCc2ccccc2)CC1 [Example I-195]

>  <IC50 [µM]>
0.58

$$$$

[A] O=C(NCc1cn(-c2ccccc2)c2cc(Cl)ccc2c1=O)c1cnc(N2CCC(CO)CC2)s1 [Example I-93]
[B] COc1ccc(NC(=O)NCc2cn(-c3ccccc3)c3cc(Cl)ccc3c2=O)cc1 [Example I-203]
[C] COC(=O)c1c(CNC(=O)c2cccnc2)c(=O)c2ccc(OC)cc2n1-c1ccccc1 [Example I-165]
Data request: List items by IC50 in falling order. Your answer should be the labels, listed in the requested order.
Data returned: B, C, A
(B: 0.65 µM, C: 0.065 µM, A: 0.033 µM)

* * *

# TARGET_OR_TEST_SYSTEM: JNK1 (Homo sapiens (Human), UniProt P45983)
# Sequence (P45983 whole entry): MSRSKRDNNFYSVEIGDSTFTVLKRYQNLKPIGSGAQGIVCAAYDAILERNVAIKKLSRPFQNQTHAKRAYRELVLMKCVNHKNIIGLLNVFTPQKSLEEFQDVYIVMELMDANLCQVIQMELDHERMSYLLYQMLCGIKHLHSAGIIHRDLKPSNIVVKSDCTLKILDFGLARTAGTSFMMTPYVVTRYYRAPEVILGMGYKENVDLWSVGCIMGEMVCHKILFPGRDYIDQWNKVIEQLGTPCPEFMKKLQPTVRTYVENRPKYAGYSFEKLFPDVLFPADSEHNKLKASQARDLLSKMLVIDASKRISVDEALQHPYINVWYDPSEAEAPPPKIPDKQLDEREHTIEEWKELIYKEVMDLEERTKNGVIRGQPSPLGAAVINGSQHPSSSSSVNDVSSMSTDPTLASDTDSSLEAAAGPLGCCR
# METHOD: In Vitro JNK1 Assay (TR-FRET, phosphorylation of GST-c-Jun)
# Type: biochemical
# TEST_CONTEXT: 0.2 nM active JNK1 kinase, 26.7 nM GST-c-Jun, 2 μM ATP, 30 min at room temperature
pIC50: −log10 of the molar value.
MEASURED_PARAMETER: pIC50

In the examples that follow, each entry is paired with its recorded pIC50.
>  <COMPOUND>
O=C(NCc1cn(-c2ccccc2)c2cc(Cl)ccc2c1=O)c1ccc(N2CCCC2)nc1

>  <TARGET_OR_TEST_SYSTEM>
JNK1 (Homo sapiens (Human), UniProt P45983)

>  <MEASURED_PARAMETER>
pIC50

>  <RECORDED_MEASUREMENT>
7.00

$$$$
>  <COMPOUND>
O=C(NCc1cn(-c2ccccc2)c2cc(Cl)ccc2c1=O)c1cnc2nc[nH]c2c1

>  <TARGET_OR_TEST_SYSTEM>
JNK1 (Homo sapiens (Human), UniProt P45983)

>  <MEASURED_PARAMETER>
pIC50

>  <RECORDED_MEASUREMENT>
6.64

$$$$
>  <COMPOUND>
O=C(NCc1cn(-c2ccccc2)c2cc(Cl)ccc2c1=O)c1ccc(-c2cnco2)cc1

>  <TARGET_OR_TEST_SYSTEM>
JNK1 (Homo sapiens (Human), UniProt P45983)

>  <MEASURED_PARAMETER>
pIC50

>  <RECORDED_MEASUREMENT>
6.77

$$$$
>  <COMPOUND>
COC(=O)c1c(CNC(=O)c2ccc(OC)cc2)c(=O)c2ccc(Cl)cc2n1-c1ccccc1

>  <TARGET_OR_TEST_SYSTEM>
JNK1 (Homo sapiens (Human), UniProt P45983)

>  <MEASURED_PARAMETER>
pIC50

>  <RECORDED_MEASUREMENT>
8.15

$$$$
>  <COMPOUND>
COC(=O)c1c(CNC(=O)c2ccc(-c3nnc[nH]3)cc2)c(=O)c2ccc(Cl)cc2n1-c1ccccc1

>  <TARGET_OR_TEST_SYSTEM>
JNK1 (Homo sapiens (Human), UniProt P45983)

>  <MEASURED_PARAMETER>
pIC50

>  <RECORDED_MEASUREMENT>
8.30

$$$$
>  <COMPOUND>
O=C(NCc1cn(-c2ccccc2Cl)c2cc(Cl)ccc2c1=O)c1ccc(N2CCOCC2)nc1

>  <TARGET_OR_TEST_SYSTEM>
JNK1 (Homo sapiens (Human), UniProt P45983)

>  <MEASURED_PARAMETER>
pIC50

>  <RECORDED_MEASUREMENT>
7.05

$$$$
>  <COMPOUND>
COC(=O)c1c(CNC(=O)c2ccc(F)cc2)c(=O)c2ccc(Cl)cc2n1-c1ccccc1

>  <TARGET_OR_TEST_SYSTEM>
JNK1 (Homo sapiens (Human), UniProt P45983)

>  <MEASURED_PARAMETER>
pIC50

>  <RECORDED_MEASUREMENT>
7.85

$$$$
>  <COMPOUND>
CN(C)c1ccc(NC(=O)NCc2cn(-c3ccccc3)c3cc(Cl)ccc3c2=O)cc1

>  <TARGET_OR_TEST_SYSTEM>
JNK1 (Homo sapiens (Human), UniProt P45983)

>  <MEASURED_PARAMETER>
pIC50

>  <RECORDED_MEASUREMENT>
6.20

$$$$
>  <COMPOUND>
O=C(NCc1c(-c2ncco2)n(-c2ccccc2)c2cc(Cl)ccc2c1=O)c1ccc(Cl)nc1

>  <TARGET_OR_TEST_SYSTEM>
JNK1 (Homo sapiens (Human), UniProt P45983)

>  <MEASURED_PARAMETER>
pIC50

>  <RECORDED_MEASUREMENT>
7.54

$$$$
>  <COMPOUND>
CN(C)c1cc(C(=O)NCc2cn(-c3ccccc3)c3cc(Cl)ccc3c2=O)ccn1

>  <TARGET_OR_TEST_SYSTEM>
JNK1 (Homo sapiens (Human), UniProt P45983)

>  <MEASURED_PARAMETER>
pIC50

>  <RECORDED_MEASUREMENT>
7.06

$$$$

[P] CN(CCO)c1ccc(C(=O)NCc2cn(-c3ccccc3)c3cc(Cl)ccc3c2=O)cn1
[Q] O=C(NCc1cn(-c2ccccc2)c2cc(Cl)ccc2c1=O)N1CCOCC1
Data request: I would appreciate it if you could say which entry, P or Q , has the lower pIC50 value. Reply with the label of the item you choose.
Data returned: Q

* * *

# System: phospho(Ser63)-c-jun in HK-2 cells
# METHOD: Cell-Based Assay for JNK Inhibitors (in-cell ELISA, phospho(Ser63)-c-jun after TNFα)
# TEST_CONTEXT: HK-2 cells (human proximal tubule cells), 60 minutes compound, then 10 ng/mL TNFα for 30 minutes
pEC50: −log10 of the molar value.
MEASURED_PARAMETER: pEC50

>  <TEST_SMILES>
O=C(NCc1cn(-c2ccccc2)c2cc(Cl)ccc2c1=O)c1cnn(-c2ccccc2)c1

>  <TARGET_OR_TEST_SYSTEM>
phospho(Ser63)-c-jun in HK-2 cells

>  <MEASURED_PARAMETER>
pEC50

>  <RECORDED_MEASUREMENT>
4.60

$$$$

[I] O=C(NCc1c(-c2ncco2)n(-c2ccccc2)c2cc(Cl)ccc2c1=O)c1ccc(N2CCCCC2)nc1
[II] COC(=O)c1c(CNC(=O)c2cccnc2)c(=O)c2ccc(OC)cc2n1-c1ccccc1
[III] CN(C)C(=O)c1c(CNC(=O)c2ccn(Cc3ccccc3)c(=O)c2)c(=O)c2ccc(Cl)cc2n1-c1ccccc1
[IV] COC(=O)c1c(CNC(=O)c2cnc(N3CCOCC3)s2)c(=O)c2ccc(Cl)cc2n1-c1ccccc1
Data request: Place the items in sequence of falling pEC50. Answer format: the labels, ordered as requested.
Data returned: IV, I, III, II

[1] CN(C)C(=O)c1c(CNC(=O)c2ccc(S(C)(=O)=O)cc2)c(=O)c2ccc(Cl)cc2n1-c1ccccc1
[2] COC(=O)c1c(CNC(=O)c2ccc3cc[nH]c3c2)c(=O)c2ccc(Cl)cc2n1-c1ccccc1
Data request: Which has the higher pEC50, 1 or 2 ? Indicate which entry you chose by stating its label.
Data returned: 2
(2: 5.52, 1: 4.52)

* * *

# Tested on: phospho(Ser63)-c-jun in HK-2 cells
# METHOD: Cell-Based Assay for JNK Inhibitors (in-cell ELISA, phospho(Ser63)-c-jun after TNFα)
# TEST_CONTEXT: HK-2 cells (human proximal tubule cells), 60 minutes compound, then 10 ng/mL TNFα for 30 minutes
# Excerpt: Cell-Based Assay for JNK Inhibitors The cell-based assay employed the in-cell ELISA method to determine the ability of compounds to prevent the generation of phospho(Ser63)-c-jun in HK-2 cells (human proximal tubule cells) in response to stimulation with tumor necrosis factor α (TNFα). […]
pEC50: −log10 of the molar value.
MEASURED_PARAMETER: pEC50

>  <MOLECULE>
O=C(NCc1cn(-c2ccccc2)c2cc(Cl)ccc2c1=O)c1ccc(N2CCCCCC2)nc1 [Example I-68]

>  <TARGET_OR_TEST_SYSTEM>
phospho(Ser63)-c-jun in HK-2 cells

>  <RECORDED_MEASUREMENT>
4.77

$$$$
>  <MOLECULE>
CN(C)C(=O)c1c(CNC(=O)c2cnc(N3CCC(CO)CC3)s2)c(=O)c2ccc(Cl)cc2n1-c1ccccc1 [Example I-26]

>  <TARGET_OR_TEST_SYSTEM>
phospho(Ser63)-c-jun in HK-2 cells

>  <RECORDED_MEASUREMENT>
4.85

$$$$

[1] COC(=O)c1c(CNC(=O)c2ccc(Cl)c(Cl)c2)c(=O)c2ccc(C(F)(F)F)nc2n1-c1ccccc1 [Example I-159]
[2] CC(C)(C)OC(=O)N1CC2CC1CN2c1ccc(C(=O)NCc2cn(-c3ccccc3)c3cc(Cl)ccc3c2=O)cn1 (stereo not shown) [Example I-62]
Data request: Looking at recorded values for pEC50, does 1 or 2 come in lower? Your answer should be the label of the entry you select.
Data returned: 1
